biological target: USP7 (Homo sapiens, UniProt Q93009); construct: USP7, construct USP7 (208-1102) 6*His, Viva Biotech; 6xHis (C); purchased Viva Biotech; test: USP7 Assay A (Ubitquin-Rhodamine 110 Assay); assay type: biochemical; details: USP7 activity in USP7 assay A and B (table does not say which assay per compound); read-out: USP7_IC50
Sequence (Q93009 208-1102): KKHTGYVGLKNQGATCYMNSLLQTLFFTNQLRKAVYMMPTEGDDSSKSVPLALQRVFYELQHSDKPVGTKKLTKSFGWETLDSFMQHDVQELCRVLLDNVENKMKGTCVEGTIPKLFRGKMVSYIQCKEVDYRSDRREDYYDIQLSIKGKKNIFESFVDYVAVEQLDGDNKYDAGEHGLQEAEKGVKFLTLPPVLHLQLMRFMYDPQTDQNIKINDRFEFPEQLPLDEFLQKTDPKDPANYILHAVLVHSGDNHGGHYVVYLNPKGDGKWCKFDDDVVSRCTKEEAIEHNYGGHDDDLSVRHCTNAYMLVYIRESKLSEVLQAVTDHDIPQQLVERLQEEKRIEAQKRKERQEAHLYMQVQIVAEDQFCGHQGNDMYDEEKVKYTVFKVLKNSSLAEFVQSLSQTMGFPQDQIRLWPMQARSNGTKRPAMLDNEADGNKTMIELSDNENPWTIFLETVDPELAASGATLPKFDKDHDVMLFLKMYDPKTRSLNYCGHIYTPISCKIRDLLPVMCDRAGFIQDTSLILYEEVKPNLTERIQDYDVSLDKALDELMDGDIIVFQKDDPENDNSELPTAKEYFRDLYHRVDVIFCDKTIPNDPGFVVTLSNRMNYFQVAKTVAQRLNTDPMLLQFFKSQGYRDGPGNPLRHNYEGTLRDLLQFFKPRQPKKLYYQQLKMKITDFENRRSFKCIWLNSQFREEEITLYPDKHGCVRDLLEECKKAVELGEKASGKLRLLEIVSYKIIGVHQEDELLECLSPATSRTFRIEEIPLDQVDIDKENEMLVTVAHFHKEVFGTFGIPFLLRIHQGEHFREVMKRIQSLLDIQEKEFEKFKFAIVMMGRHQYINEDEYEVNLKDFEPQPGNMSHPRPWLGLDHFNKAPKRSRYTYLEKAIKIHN
observation type: IC50

Take a look at these entries with their results.
O=C(C1CC1)N1CCC(O)(Cn2cnc3c(cnn3-c3ccc(-n4cc(OCCO)cn4)cc3)c2=O)CC1    1000 to 10000 nM
Cn1ncc2c1CC(C(=O)N1CCC(O)(Cn3cnc4c(cnn4-c4ccc(F)cc4)c3=O)CC1)CC2 (centres unmarked)    1000 to 10000 nM

Reported IC50, compound CN1CCN(c2cccc(-n3ccc4c(=O)n(CC5(O)CCN(C(=O)C[C@@H](C(F)F)n6cccn6)CC5)cnc43)c2)CC1 : ____
< 200 nM

CN1CC2CC1CN2c1ccc(C(=O)N2CCC(O)(Cn3cnc4c(cnn4-c4ccc(F)cc4)c3=O)CC2)cc1 (centres unmarked) , same question.
1000 to 10000 nM

COc1ccc(OC2CCC(C(=O)N3CCC(O)(Cn4cnc5c(cnn5-c5ccc(F)cc5)c4=O)CC3)CC2)nc1 (centres unmarked) , same question.
200 to 1000 nM

Cc1nccn1-c1ccc(-n2ncc3c(=O)n(CC4(O)CCN(C(=O)c5ccc(F)cc5)CC4)cnc32)cc1 , same question.
1000 to 10000 nM

CC1(C(=O)N2CCC(O)(Cn3cnc4c(cnn4-c4ccc(-n5cc(C(F)(F)F)cn5)cc4)c3=O)CC2)CC1 , same question.
200 to 1000 nM

Cc1cnn([C@@H](CC(=O)N2CCC(O)(Cn3cnc4c(cnn4-c4ccc(F)cc4)c3=O)CC2)C(F)F)c1 (single isomer, unassigned) , same question.
> 10000 nM
